target: Hepatocyte nuclear factor 6 (Homo sapiens) (UniProt Q9UBC0); test: ATG_HNF6_CIS: Attagene CIS-FACTORIAL HepG2 Assay for human Hepatocyte Nuclear Factor 6 (HNF6) (AID 2282952); conditions: HepG2 Attagene cis-factorial HNF6 reporter transcription; actives raise or lower the signal
Sequence (Q9UBC0 whole entry, looked up): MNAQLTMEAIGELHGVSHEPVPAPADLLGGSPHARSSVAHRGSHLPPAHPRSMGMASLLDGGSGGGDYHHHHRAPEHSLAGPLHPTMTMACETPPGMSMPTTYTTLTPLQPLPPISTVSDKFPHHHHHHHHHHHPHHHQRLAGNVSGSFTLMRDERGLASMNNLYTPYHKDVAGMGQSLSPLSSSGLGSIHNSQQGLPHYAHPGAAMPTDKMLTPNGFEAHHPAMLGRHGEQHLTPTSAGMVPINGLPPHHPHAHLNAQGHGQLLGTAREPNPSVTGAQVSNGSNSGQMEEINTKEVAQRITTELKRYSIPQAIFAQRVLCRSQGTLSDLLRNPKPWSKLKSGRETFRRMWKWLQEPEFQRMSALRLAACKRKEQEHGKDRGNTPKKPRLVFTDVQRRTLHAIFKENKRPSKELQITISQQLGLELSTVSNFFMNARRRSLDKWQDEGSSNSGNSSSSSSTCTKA
The source made the active and inactive calls. The calls were made as follows: active = hit-call score of the fitted dose curve at least 0.9, where 1 is the maximum; inactive = score below 0.9.
Classes used: active, inactive

compound	category
COC(=O)NS(=O)(=O)c1ccc(N)cc1	inactive
COC(=O)NC(=S)Nc1ccccc1NC(=S)NC(=O)OC	inactive
COCC(=O)N(c1c(C)cccc1C)C(C)C(=O)OC (stereo unspecified)	inactive
O=C(O)c1c(Cl)ccc2cc(Cl)cnc12	inactive
CC(C)(C)C(=O)C(Oc1ccc(Cl)cc1)n1cncn1 (stereo unspecified)	inactive
O=C(Nc1ccccc1-c1ccc(Cl)cc1)c1cccnc1Cl	inactive
CCCCC(O)(Cn1cncn1)c1ccc(Cl)cc1Cl (stereo unspecified)	active
CS(=O)(=O)c1ccc(C(=O)C2C(=O)CCCC2=O)c([N+](=O)[O-])c1	inactive
CC1(C)C(C=C(Cl)Cl)C1C(=O)OC(C#N)c1cccc(Oc2ccccc2)c1 (stereo unspecified)	inactive
CC(C)NC(=O)N1CC(=O)N(c2cc(Cl)cc(Cl)c2)C1=O	inactive
COCc1cnc(C2=NC(C)(C(C)C)C(=O)N2)c(C(=O)O)c1 (stereo unspecified)	inactive
COP(=S)(OC)Oc1ccc([N+](=O)[O-])c(C)c1	inactive
Cn1c(-c2ccccc2)cc(-c2ccccc2)[n+]1C	inactive
Nc1c(Cl)c(F)nc(OCC(=O)O)c1Cl	inactive
Clc1cccc(C(Cl)(Cl)Cl)n1	inactive
Nc1c(Cl)c(Cl)nc(C(=O)O)c1Cl	inactive

---

read-out: Broad substrate specificity ATP-binding cassette transporter ABCG2 (Homo sapiens); assay: LTEA_HepaRG_ABCG2: Life Technologies and Expression Analysis (LTEA) Assay for ABC Transporter (ABCG2) using HepaRG (AID 2283465); conditions: mRNA level, 48 h; actives raise or lower the signal
The source made the active and inactive calls. Rule for the calls: active = hit-call score of the fitted dose curve at least 0.9, where 1 is the maximum; inactive = score below 0.9.
readout: AC50

compound	value
CC1(C)C(C(=O)OC(C#N)c2cccc(Oc3ccccc3)c2)C1(C)C (stereo not drawn)	inactive
COc1ccc(-c2ccccc2)cc1NNC(=O)OC(C)C	inactive
OC(c1ccc(Cl)cc1)(c1ccc(Cl)cc1)C(Cl)(Cl)Cl	50 µM (active)
COCC(=O)N(c1c(C)cccc1C)C(C)C(=O)OC (stereo not drawn)	inactive
CC(C)Oc1cccc(NC(=O)c2ccccc2C(F)(F)F)c1	inactive
COc1cc(OC)nc(NC(=O)NS(=O)(=O)c2ncccc2OCC(F)(F)F)n1	inactive
Cn1c(-c2ccccc2)cc(-c2ccccc2)[n+]1C	inactive
O=P(O)(O)CCCl	inactive
CC(C)NC(=O)N1CC(=O)N(c2cc(Cl)cc(Cl)c2)C1=O	15 µM (active)
COP(=O)(OC)O/C(C)=C/C(=O)N(C)C	inactive
CN/C(=N\[N+](=O)[O-])NCc1cnc(Cl)s1	28.6 µM (active)
CCOP(=O)(OCC)Oc1nc(Cl)c(Cl)cc1Cl	inactive
CC(C)N1C(=O)c2ccccc2NS1(=O)=O	inactive

---

experiment: BSK_BE3C_SRB: Viability Assessment in the BioMAP Diversity Plus: BE3C Assay (AID 2283028); conditions: primary human bronchial epithelial cells;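 also: measured 24 h after chemical dosing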
Calls of active or inactive are those of the source. How the source made its calls: active means hit-call score of the fitted dose curve at least 0.9, where 1 is the maximum; inactive means score below 0.9.
Classes used: label 1 = active, label 0 = inactive

molecule	category
COCc1cnc(C2=NC(C)(C(C)C)C(=O)N2)c(C(=O)O)c1 (stereo not given)	label 0
Nc1c(Cl)c(F)nc(OCC(=O)O)c1Cl	label 0
CC1(C)CON(Cc2ccccc2Cl)C1=O	label 0
CCNC(=O)NC(=O)C(C#N)=NOC	label 0
COP(=S)(OC)SCn1nnc2ccccc2c1=O	label 0
C=CCOC(=O)C(C)(C)OC(=O)c1cc(-n2c(=O)cc(C(F)(F)F)n(C)c2=O)ccc1Cl	label 0
COC(=O)NC(=S)Nc1ccccc1NC(=S)NC(=O)OC	label 0
COc1ccc(-c2ccccc2)cc1NNC(=O)OC(C)C	label 0
CC(C)C1(C)N=C(c2ncccc2C(=O)O)NC1=O (stereo not given)	label 0
CCOC(=O)C(C)OC(=O)c1cc(Oc2ccc(C(F)(F)F)cc2Cl)ccc1[N+](=O)[O-] (stereo not given)	label 0
N#CN=C1SCCN1Cc1ccc(Cl)nc1	label 0
O=P(O)(O)CCCl	label 0
O=c1n(Cl)c(=O)n(Cl)c(=O)n1Cl	label 0
CN/C(=N\[N+](=O)[O-])NCc1cnc(Cl)s1	label 0
O=C(O)c1c(Cl)ccc2cc(Cl)cnc12	label 0
N#Cc1c[nH]cc1-c1cccc2c1OC(F)(F)O2	label 0
Clc1cccc(C(Cl)(Cl)Cl)n1	label 0
Cc1ccc(N=CN(C)C=Nc2ccc(C)cc2C)c(C)c1	label 1
CCOP(=S)(OCC)Oc1nc(Cl)n(C(C)C)n1	label 0
CS(=O)(=O)c1ccc(C(=O)C2C(=O)CCCC2=O)c([N+](=O)[O-])c1	label 0
CCOc1nc(F)cc2nc(S(=O)(=O)Nc3c(Cl)cccc3Cl)nn12	label 0
CC(C)N1C(=O)c2ccccc2NS1(=O)=O	label 0
CO/N=C(/C1=NOCCO1)c1ccccc1Oc1ncnc(Oc2ccccc2Cl)c1F	label 0
Cc1nc(N(C)C)nc(OC(=O)N(C)C)c1C	label 0
OC(c1ccc(Cl)cc1)(c1ccc(Cl)cc1)C(Cl)(Cl)Cl	label 1

---

read-out: 3-Hydroxy-3-Methylglutaryl-CoA Synthase 2 (HMGCS2), HMGCS2 (gene 3158); assay: LTEA_HepaRG_HMGCS2: Life Technologies and Expression Analysis (LTEA) Assay for 3-Hydroxy-3-Methylglutaryl-CoA Synthase 2 (HMGCS2) using HepaRG (AID 2283504); settings: mRNA level, 48 h; actives raise or lower the signal
Active and inactive are the calls of the source. The calls were made as follows: active = hit-call score of the fitted dose curve at least 0.9, where 1 is the maximum; inactive = score below 0.9.
Classes used: Yes for active, No for inactive

molecule	category
CS(=O)(=O)c1ccc(C(=O)C2C(=O)CCCC2=O)c([N+](=O)[O-])c1	No
CNC(=O)Oc1cccc2ccccc12	No
COCC(=O)N(c1c(C)cccc1C)C(C)C(=O)OC (configuration not stated)	No
Cn1c(-c2ccccc2)cc(-c2ccccc2)[n+]1C	Yes
Nc1c(Cl)c(F)nc(OCC(=O)O)c1Cl	No
CCSC(=O)N1CCCCCC1	No
Nc1c(Cl)c(Cl)nc(C(=O)O)c1Cl	No
CCCC(=NOCC)C1=C(O)CC(CC(C)SCC)CC1=O (configuration not stated)	No
CNC(=O)N(C)c1nnc(C(C)(C)C)s1	No
O=c1n(Cl)c(=O)n(Cl)c(=O)n1Cl	No
N#CN=C1SCCN1Cc1ccc(Cl)nc1	No
CN=C=S	No
Cc1cnc(C2=NC(C)(C(C)C)C(=O)N2)c(C(=O)O)c1 (configuration not stated)	No
CCN(CC)c1nc(C)cc(OP(=S)(OC)OC)n1	No
N#Cc1c(Cl)cccc1Cl	No
COP(=O)(OC)O/C(C)=C/C(=O)N(C)C	No
CCNP(=S)(OC)O/C(C)=C/C(=O)OC(C)C (configuration not stated)	Yes
COCC(C)N(C(=O)CCl)c1c(C)csc1C (configuration not stated)	No
CCOP(=S)(OCC)Oc1nc(Cl)n(C(C)C)n1	Yes
CCOC(=O)C(C)OC(=O)c1cc(Oc2ccc(C(F)(F)F)cc2Cl)ccc1[N+](=O)[O-] (configuration not stated)	Yes
Clc1nc(Cl)nc(Nc2ccccc2Cl)n1	No
CCCCC(C#N)(Cn1cncn1)c1ccc(Cl)cc1 (configuration not stated)	Yes
CCCCC(O)(Cn1cncn1)c1ccc(Cl)cc1Cl (configuration not stated)	Yes
CC(C)Nc1nc(Cl)nc(NC(C)C)n1	Yes
Cc1cc(C)nc(Nc2ccccc2)n1	No
CCNC(=O)NC(=O)C(C#N)=NOC	Yes
OC(c1ccc(Cl)cc1)(c1ccc(Cl)cc1)C(Cl)(Cl)Cl	Yes
CCCCOCN(C(=O)CCl)c1c(CC)cccc1CC	No
CC(C)N1C(=O)c2ccccc2NS1(=O)=O	No
CSC(=O)c1c(C(F)F)nc(C(F)(F)F)c(C(=O)SC)c1CC(C)C	Yes
CS(=O)(=O)c1cc(C(F)(F)F)ccc1C(=O)c1cnoc1C1CC1	No
C=C(C)CN(CC)c1c([N+](=O)[O-])cc(C(F)(F)F)cc1[N+](=O)[O-]	No
CC(C)=CC1C(C(=O)OCc2coc(Cc3ccccc3)c2)C1(C)C (configuration not stated)	No
Cc1ccc(N=CN(C)C=Nc2ccc(C)cc2C)c(C)c1	No
O=C(O)c1c(Cl)ccc2cc(Cl)cnc12	No
COc1cc(OC)nc(NC(=O)NS(=O)(=O)c2ncccc2OCC(F)(F)F)n1	No
CCN(CC)C(=O)C(C)Oc1cccc2ccccc12 (configuration not stated)	Yes

---

read-out: ABC Transporter (ABCB11), ABCB11 (gene 8647); test: LTEA_HepaRG_ABCB11: Life Technologies and Expression Analysis (LTEA) Assay for ABC Transporter (ABCB11) using HepaRG (AID 2283463); conditions: mRNA level, 48 h; actives raise or lower the signal
Active and inactive are the calls of the source. Rule for the calls: active = hit-call score of the fitted dose curve at least 0.9, where 1 is the maximum; inactive = score below 0.9.
Classes used: class 1 = active, class 0 = inactive

compound	category
COCC(C)N(C(=O)CCl)c1c(C)csc1C (configuration not stated)	class 1
COP(=O)(OC)O/C(C)=C/C(=O)N(C)C	class 1
CCCN(CC)CC1COC2(CCC(C(C)(C)C)CC2)O1 (configuration not stated)	class 0
Nc1cnn(-c2ccccc2)c(=O)c1Cl	class 0
CCCC(=NOCC)C1=C(O)CC(CC(C)SCC)CC1=O (configuration not stated)	class 0
CSC(=O)c1c(C(F)F)nc(C(F)(F)F)c(C(=O)SC)c1CC(C)C	class 1
CC1(C)CCC(=Cc2ccc(Cl)cc2)C1(O)Cn1cncn1 (configuration not stated)	class 0
CCOP(=S)(OCC)Oc1nc(Cl)n(C(C)C)n1	class 1
Cc1cc(C)nc(Nc2ccccc2)n1	class 0
CCSC(=O)N1CCCCCC1	class 0
CCN(CC)c1nc(C)cc(OP(=S)(OC)OC)n1	class 0
CCOC(=O)C(C)OC(=O)c1cc(Oc2ccc(C(F)(F)F)cc2Cl)ccc1[N+](=O)[O-] (configuration not stated)	class 0
